Test System: Sarcoplasmic/endoplasmic reticulum calcium ATPase 1 (Oryctolagus cuniculus) (UniProt P04191)
Sequence (P04191 whole entry): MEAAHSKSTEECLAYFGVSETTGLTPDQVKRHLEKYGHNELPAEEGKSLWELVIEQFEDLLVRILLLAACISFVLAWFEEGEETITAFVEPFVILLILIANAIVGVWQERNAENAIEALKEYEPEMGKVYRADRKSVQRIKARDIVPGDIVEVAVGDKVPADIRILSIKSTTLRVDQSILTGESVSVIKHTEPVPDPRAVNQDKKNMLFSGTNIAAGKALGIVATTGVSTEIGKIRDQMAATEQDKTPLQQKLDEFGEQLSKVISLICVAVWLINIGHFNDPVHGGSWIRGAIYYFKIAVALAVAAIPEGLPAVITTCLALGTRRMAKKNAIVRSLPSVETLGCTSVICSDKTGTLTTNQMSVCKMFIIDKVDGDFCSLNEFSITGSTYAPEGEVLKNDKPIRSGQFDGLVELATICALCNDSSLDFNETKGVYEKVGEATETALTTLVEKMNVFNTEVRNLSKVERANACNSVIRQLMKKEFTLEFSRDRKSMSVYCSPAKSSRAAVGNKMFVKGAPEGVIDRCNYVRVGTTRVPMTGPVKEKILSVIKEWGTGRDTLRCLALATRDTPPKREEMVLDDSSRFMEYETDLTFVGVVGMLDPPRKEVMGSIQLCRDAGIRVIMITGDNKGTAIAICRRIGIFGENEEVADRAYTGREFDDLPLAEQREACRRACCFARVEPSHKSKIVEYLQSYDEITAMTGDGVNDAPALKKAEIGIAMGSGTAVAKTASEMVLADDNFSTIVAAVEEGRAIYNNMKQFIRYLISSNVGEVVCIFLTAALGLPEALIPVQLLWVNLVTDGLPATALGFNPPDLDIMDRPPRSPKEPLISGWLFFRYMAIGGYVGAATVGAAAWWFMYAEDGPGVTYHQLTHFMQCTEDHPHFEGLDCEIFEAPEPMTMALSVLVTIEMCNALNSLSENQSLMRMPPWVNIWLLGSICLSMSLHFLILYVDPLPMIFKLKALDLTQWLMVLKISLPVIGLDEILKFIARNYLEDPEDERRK
Assay Overview: Binding affinity to cytosolic region of SERCA1 ATP binding site in NewZealand rabbit SR vesicles assessed as conformational changes by measuring decrease in fluorescence intensity at IC50 incubated for 1 hr by FITC probe labeling based analysis
The source made the active and inactive calls. The calls are words filed in the database; no cut-off is given here.
Outcome codes: 1 (active), -1 (inactive)

| Molecule | Answer Label |
| --- | --- |
| CC1=C[C@@H]2c3c(O)cc(-c4cc5ccc(O)cc5o4)cc3O[C@@]3(c4ccc(O)cc4O)Oc4cc(O)ccc4[C@@H](C1)[C@H]23 | -1 |
| COc1cc(O)c([C@@H]2CC(=O)c3c(O)cc(O)cc3O2)cc1C/C=C(\C)CCC=C(C)C | 1 |
| CC(C)=CCC/C(C)=C/Cc1cc([C@@H]2CC(=O)c3c(O)cc(O)cc3O2)c(O)cc1O | 1 |
| Cc1cc2c3c(c1)-c1c(O)cc(-c4cc5ccc(O)cc5o4)cc1O[C@@]3(c1ccc(O)cc1O)Oc1cc(O)ccc1-2 | -1 |
| CC1(C)Oc2cc3oc(-c4cc(O)cc(O)c4)cc3cc2CC1O (stereo not drawn) [(+/-)-MORACIN P] | 1 |
| CC(C)=CCc1c(-c2ccc(O)cc2O)oc2c3c(cc(O)c2c1=O)OC(C)(C)C=C3 | 1 |
| CC(C)(O)C1Cc2cc3cc(-c4cc(O)cc(O)c4)oc3cc2O1 (configuration not stated) | 1 |

====

Test System: Sarcoplasmic/endoplasmic reticulum calcium ATPase 1 (Rattus norvegicus)
Assay Overview: Inhibition of SERCA1 in rat INS-1E cells assessed as induction of apoptosis by measuring increase in late apoptotic cells at IC50 for cell viability incubated for 24 hrs by Annexin V-FITC/propidium iodide staining based flow cytometry
Activity calls are given as the source filed them. The rule behind the calls is not given here.
Outcome codes: Yes (active), No (inactive)

| Compound | Answer Label |
| --- | --- |
| CC(C)(O)C1Cc2cc3cc(-c4cc(O)cc(O)c4)oc3cc2O1 (configuration not stated) | No |
| CC1(C)Oc2cc3oc(-c4cc(O)cc(O)c4)cc3cc2CC1O (stereo not drawn) [(+/-)-MORACIN P] | No |
| CC(C)=CCC/C(C)=C/Cc1cc([C@@H]2CC(=O)c3c(O)cc(O)cc3O2)c(O)cc1O | Yes |
| CC(C)=CCc1c(-c2ccc(O)cc2O)oc2c3c(cc(O)c2c1=O)OC(C)(C)C=C3 | Yes |
| Cc1cc2c3c(c1)-c1c(O)cc(-c4cc5ccc(O)cc5o4)cc1O[C@@]3(c1ccc(O)cc1O)Oc1cc(O)ccc1-2 | No |
| COc1cc(O)c([C@@H]2CC(=O)c3c(O)cc(O)cc3O2)cc1C/C=C(\C)CCC=C(C)C | Yes |
| CC1=C[C@@H]2c3c(O)cc(-c4cc5ccc(O)cc5o4)cc3O[C@@]3(c4ccc(O)cc4O)Oc4cc(O)ccc4[C@@H](C1)[C@H]23 | No |

====

Test System: Sarcoplasmic/endoplasmic reticulum calcium ATPase 1 (Rattus norvegicus) (UniProt Q64578)
Sequence (Q64578 whole entry): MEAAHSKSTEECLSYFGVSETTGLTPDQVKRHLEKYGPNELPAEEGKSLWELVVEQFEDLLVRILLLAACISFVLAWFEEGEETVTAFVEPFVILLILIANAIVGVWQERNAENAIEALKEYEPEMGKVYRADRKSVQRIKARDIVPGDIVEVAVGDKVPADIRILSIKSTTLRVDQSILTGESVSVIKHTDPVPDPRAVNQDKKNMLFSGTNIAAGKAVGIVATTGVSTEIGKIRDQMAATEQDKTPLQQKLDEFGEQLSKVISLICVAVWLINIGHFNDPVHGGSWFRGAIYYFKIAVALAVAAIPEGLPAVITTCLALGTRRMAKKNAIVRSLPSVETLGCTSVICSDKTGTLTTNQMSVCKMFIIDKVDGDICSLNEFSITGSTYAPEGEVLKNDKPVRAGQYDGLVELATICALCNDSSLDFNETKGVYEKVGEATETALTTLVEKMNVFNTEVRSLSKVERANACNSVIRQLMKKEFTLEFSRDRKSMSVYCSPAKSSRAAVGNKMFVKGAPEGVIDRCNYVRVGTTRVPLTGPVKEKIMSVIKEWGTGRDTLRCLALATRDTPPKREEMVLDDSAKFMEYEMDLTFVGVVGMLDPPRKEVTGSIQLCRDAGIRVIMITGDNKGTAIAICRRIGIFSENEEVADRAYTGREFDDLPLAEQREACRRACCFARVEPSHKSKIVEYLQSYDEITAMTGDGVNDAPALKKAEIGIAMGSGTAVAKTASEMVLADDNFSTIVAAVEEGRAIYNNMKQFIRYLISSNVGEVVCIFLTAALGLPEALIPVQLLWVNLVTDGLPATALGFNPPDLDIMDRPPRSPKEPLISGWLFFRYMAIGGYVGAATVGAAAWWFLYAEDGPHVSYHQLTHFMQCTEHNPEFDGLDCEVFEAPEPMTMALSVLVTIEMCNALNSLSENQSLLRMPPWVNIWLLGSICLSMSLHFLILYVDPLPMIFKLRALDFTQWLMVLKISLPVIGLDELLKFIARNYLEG
Assay Overview: Inhibition of SERCA1 in rat INS-1E cells assessed as induction of apoptosis by measuring increase in early apoptotic cells at IC50 for cell viability incubated for 24 hrs by Annexin V-FITC/propidium iodide staining based flow cytometry
Activity calls are given as the source filed them. No cut-off for these calls is given here.
Outcome codes: 1 = active, 0 = inactive

| Molecule | Test System | Answer Label |
| --- | --- | --- |
| Cc1cc2c3c(c1)-c1c(O)cc(-c4cc5ccc(O)cc5o4)cc1O[C@@]3(c1ccc(O)cc1O)Oc1cc(O)ccc1-2 | Sarcoplasmic/endoplasmic reticulum calcium ATPase 1 (Rattus norvegicus) (UniProt Q64578) | 1 |
| CC(C)(O)C1Cc2cc3cc(-c4cc(O)cc(O)c4)oc3cc2O1 (configuration not stated) | Sarcoplasmic/endoplasmic reticulum calcium ATPase 1 (Rattus norvegicus) (UniProt Q64578) | 1 |
| CC(C)=CCC/C(C)=C/Cc1cc([C@@H]2CC(=O)c3c(O)cc(O)cc3O2)c(O)cc1O | Sarcoplasmic/endoplasmic reticulum calcium ATPase 1 (Rattus norvegicus) (UniProt Q64578) | 1 |
| COc1cc(O)c([C@@H]2CC(=O)c3c(O)cc(O)cc3O2)cc1C/C=C(\C)CCC=C(C)C | Sarcoplasmic/endoplasmic reticulum calcium ATPase 1 (Rattus norvegicus) (UniProt Q64578) | 1 |
| CC1=C[C@@H]2c3c(O)cc(-c4cc5ccc(O)cc5o4)cc3O[C@@]3(c4ccc(O)cc4O)Oc4cc(O)ccc4[C@@H](C1)[C@H]23 | Sarcoplasmic/endoplasmic reticulum calcium ATPase 1 (Rattus norvegicus) (UniProt Q64578) | 1 |
| CC1(C)Oc2cc3oc(-c4cc(O)cc(O)c4)cc3cc2CC1O (stereo not drawn) [(+/-)-MORACIN P] | Sarcoplasmic/endoplasmic reticulum calcium ATPase 1 (Rattus norvegicus) (UniProt Q64578) | 1 |
| CC(C)=CCc1c(-c2ccc(O)cc2O)oc2c3c(cc(O)c2c1=O)OC(C)(C)C=C3 | Sarcoplasmic/endoplasmic reticulum calcium ATPase 1 (Rattus norvegicus) (UniProt Q64578) | 0 |

Data provenance is ChEMBL document CHEMBL4610111.
